// reported Fold increase in CD69 expression [MFI normalized to neg. ctrl.], 5 µg/ml anti-CD3 IgG for each item listed
- Tested System: human CD3ε expressed on the cell surface of T cells (Jurkat cells; human CD8+ T cells) (human, UniProt P07766 23-207)
- Assay Info: cell-based or functional assay
Reply numerically in fold, unit not repeated.

Use the examples below as a reference point.
Binder: clone-06 (antibody, V domains shown, Recombinant rabbit IgG; also called Clone 6) VH: QSVEESGGRLVTPGTPLTLTCTVSGFPLSSYAMIWVRQAPGKGLEWIGMILRAGNIYYASWVKGRVTISKTSTTVDLKITSPTTEDTATYFCARRHYNREGYPIGIGDLWGPGTLVTVSS VL: AQVLTQTPSSVSAAVGGTVTISCQSSESVYNNKRLSWFQQKPGQPPKQLIYTASSLASGVPSRFKGSGSGTQFTLTISDLECDDAATYYCQGEFTCSNADCFTFGGGTEVVVKG
Unit Descriptor: fold
Test Result: 5.1
--
Binder: clone-03 (antibody, V domains shown, Recombinant rabbit IgG; also called Clone 3) VH: QSLEESGGRLVTPGTPLTLTCTVSGFPLNRYAMLWVRQAPGKGLEWIGLITRADKKYYASWAKGRFTISKTSTTVDLEITGPTTEDTATYFCARRHYNTDGYPIAIGDLWGPGTLVTVSS VL: AQVLTQTPSSVSAAVGGTVTISCQSNENIYSNNRLSWFQQKPGQPPNQLIYSASSLASGVPSRFKGSGSGTQFTLTISDLECDDAATYYCQGEFNCNSADCFTFGGGTEVVVKG
Unit Descriptor: fold
Test Result: 4.6

Turning now to a further binder:
Note to self: Fold increase in CD69 expression [MFI normalized to neg. ctrl.], 5 µg/ml anti-CD3 IgG recorded for clone-02 (antibody, V domains shown, Recombinant rabbit IgG; also called Clone 2) VH: QSLEESGGRLVTPGTPLTLTCTVSGFPLSAYAMIWVRQAPGKGLEWIGMIIRSGTVYYANWAKGRFTISKTSTTVDLKITSPTTEDTATYFCARRHYNADGYPIGIGDLWGPGTLVTVSS VL: AQVLTQTPSSVSAVVGGTVTISCQSSESVYSNNRLSWFQQKPGQPPKLLIYSASTLASGVPSRFKGSGSGTQFTLTITDLECDDAATYFCQGEFSCSSVDCFSFGGGTEVVVKG was 4.6
